From: the NIST ThermoML archive (doi:10.1021/je900550v)

- study-conditions: 321.15 K; 101.33 kPa; Liquid; Pulse-echo method
recorded-metric: speed of sound (m/s)

CC(C)C(=O)[O-].C[NH2+]CCO [2-hydroxy-N-methylethanaminium isobutyrate]	1546.3
CCC(=O)[O-].C[NH2+]CCO [2-hydroxy-N-methylethanaminium propionate]	1622
C[NH2+]CCO.O=C[O-] [2-hydroxy-N-methylethanaminium formate]	1770.5
CCCCC(=O)[O-].C[NH2+]CCO [2-hydroxy-N-methylethanaminium pentanoate]	1477.7
CCCC(=O)[O-].C[NH2+]CCO [N-methyl-2-hydroxyethylammonium butanoate]	1542.5

----------
- study-conditions: 293.9 K; 101.33 kPa; Liquid; Pulse-echo method
recorded-metric: speed of sound (m/s)

CC(C)C(=O)[O-].C[NH2+]CCO [2-hydroxy-N-methylethanaminium isobutyrate]	1623.4
CCCCC(=O)[O-].C[NH2+]CCO [2-hydroxy-N-methylethanaminium pentanoate]	1562.3
C[NH2+]CCO.O=C[O-] [2-hydroxy-N-methylethanaminium formate]	1823.6
CCCC(=O)[O-].C[NH2+]CCO [N-methyl-2-hydroxyethylammonium butanoate]	1628.2
CCC(=O)[O-].C[NH2+]CCO [2-hydroxy-N-methylethanaminium propionate]	1702.6

----------
- study-conditions: 335.41 K; 101.33 kPa; Liquid; Pulse-echo method
recorded-metric: speed of sound (m/s)

CCCCC(=O)[O-].C[NH2+]CCO [2-hydroxy-N-methylethanaminium pentanoate]	1434
C[NH2+]CCO.O=C[O-] [2-hydroxy-N-methylethanaminium formate]	1743.4
CC(C)C(=O)[O-].C[NH2+]CCO [2-hydroxy-N-methylethanaminium isobutyrate]	1505.5
CCC(=O)[O-].C[NH2+]CCO [2-hydroxy-N-methylethanaminium propionate]	1579
CCCC(=O)[O-].C[NH2+]CCO [N-methyl-2-hydroxyethylammonium butanoate]	1497.8

----------
- study-conditions: 285.65 K; 101.33 kPa; Liquid; Pulse-echo method
recorded-metric: speed of sound (m/s)

CCCC(=O)[O-].C[NH2+]CCO [N-methyl-2-hydroxyethylammonium butanoate]	1655.9
C[NH2+]CCO.O=C[O-] [2-hydroxy-N-methylethanaminium formate]	1839.8
CCC(=O)[O-].C[NH2+]CCO [2-hydroxy-N-methylethanaminium propionate]	1727.8
CC(C)C(=O)[O-].C[NH2+]CCO [2-hydroxy-N-methylethanaminium isobutyrate]	1647.2
CCCCC(=O)[O-].C[NH2+]CCO [2-hydroxy-N-methylethanaminium pentanoate]	1589.6

----------
- study-conditions: 310.15 K; 101.33 kPa; Liquid; Pulse-echo method
recorded-metric: speed of sound (m/s)

CCCCC(=O)[O-].C[NH2+]CCO [2-hydroxy-N-methylethanaminium pentanoate]	1511.4
CCCC(=O)[O-].C[NH2+]CCO [N-methyl-2-hydroxyethylammonium butanoate]	1576.8
C[NH2+]CCO.O=C[O-] [2-hydroxy-N-methylethanaminium formate]	1792
CC(C)C(=O)[O-].C[NH2+]CCO [2-hydroxy-N-methylethanaminium isobutyrate]	1577.5
CCC(=O)[O-].C[NH2+]CCO [2-hydroxy-N-methylethanaminium propionate]	1654.6

----------
- study-conditions: 329.4 K; 101.33 kPa; Liquid; Pulse-echo method
recorded-metric: speed of sound (m/s)

CCCC(=O)[O-].C[NH2+]CCO [N-methyl-2-hydroxyethylammonium butanoate]	1516.6
CC(C)C(=O)[O-].C[NH2+]CCO [2-hydroxy-N-methylethanaminium isobutyrate]	1522.8
CCCCC(=O)[O-].C[NH2+]CCO [2-hydroxy-N-methylethanaminium pentanoate]	1452.4
C[NH2+]CCO.O=C[O-] [2-hydroxy-N-methylethanaminium formate]	1754.6
CCC(=O)[O-].C[NH2+]CCO [2-hydroxy-N-methylethanaminium propionate]	1597.1
